# assayed.target: h-cGAS^CD (Homo sapiens, UniProt Q8N884)
# Sequence (Q8N884 157-522): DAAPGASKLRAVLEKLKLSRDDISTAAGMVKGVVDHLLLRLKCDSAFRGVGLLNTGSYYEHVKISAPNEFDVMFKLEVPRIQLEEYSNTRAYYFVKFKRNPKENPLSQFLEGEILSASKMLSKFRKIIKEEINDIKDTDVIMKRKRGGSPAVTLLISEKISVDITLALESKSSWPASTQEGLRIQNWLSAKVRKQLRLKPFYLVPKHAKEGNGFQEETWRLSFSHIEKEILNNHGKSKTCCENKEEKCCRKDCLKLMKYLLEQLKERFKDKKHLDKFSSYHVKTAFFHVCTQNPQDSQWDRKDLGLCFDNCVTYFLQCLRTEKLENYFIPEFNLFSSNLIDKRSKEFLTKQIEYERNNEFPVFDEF
metric: Kd (µM)
Please state the figure in µM; there is no need to write the unit.

Task item: For Cc1nn(-c2nc3c(F)cc(F)cc3s2)c(O)c1C(c1ccc(C(F)(F)F)cc1)c1c(C)nn(-c2nc3c(F)cc(F)cc3s2)c1O , what is its reported Kd?
Reply: 7.19

###

# assay.notes: In vivo PK study of XL-3158 in ICR mouse
# test.context: male, plasma, oral, 50 mg/kg
metric: half-life (h)
Enter your answer as a number in h; do not include the unit.

Task item: Reported half-life, molecule Cc1nn(-c2nc3c(F)cc(F)cc3s2)c(O)c1C(c1ccc(C(F)(F)F)cc1)c1c(C)nn(-c2nc3c(F)cc(F)cc3s2)c1O : ____
Reply: 4.07

###

# assay.notes: Cell viability assay
# Format: cell-based
# test.context: human, THP-1 dual cells, CC50 (CCK-8)
metric: CC50 at 24 h (µM)
Unit µM implied. Number only.

Task item: Item under review: Cc1nn(-c2nc3c(F)cc(F)cc3s2)c(O)c1C(c1ccc(C(F)(F)F)cc1)c1c(C)nn(-c2nc3c(F)cc(F)cc3s2)c1O . Reported CC50 at 24 h?
Reply: 77.5

###

# assayed.target: m-cGAS^CD (Mus musculus)
# Sequence (Q8C6L5 147-507): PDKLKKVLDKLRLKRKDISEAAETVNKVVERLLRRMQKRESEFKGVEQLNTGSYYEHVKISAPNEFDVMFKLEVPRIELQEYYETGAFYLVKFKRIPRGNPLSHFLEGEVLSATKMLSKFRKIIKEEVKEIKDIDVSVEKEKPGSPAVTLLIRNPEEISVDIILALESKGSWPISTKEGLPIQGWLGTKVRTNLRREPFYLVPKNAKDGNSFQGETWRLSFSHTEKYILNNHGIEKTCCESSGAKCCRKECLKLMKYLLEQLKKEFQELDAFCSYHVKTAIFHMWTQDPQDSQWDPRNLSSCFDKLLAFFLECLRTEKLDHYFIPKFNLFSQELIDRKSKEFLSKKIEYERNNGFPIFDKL
# assay.notes: Pyrophosphatase
# test.context: IC50 (PPI assay), recombinant m-cGAS
metric: pIC50
# log scale: pIC50 equals minus log10 of the concentration in mol/L

Task item: Any idea what its pIC50 is? The compound is Cc1nn(-c2nc3ccc(Cl)c(Cl)c3[nH]2)c(O)c1C1OC(=O)c2ccccc21 (centres unmarked) [RU.521, reference compound]
Reply: 6.43

Task item: Next: Cc1nn(-c2nc3c(F)cc(F)cc3s2)c(O)c1C(c1ccc(C(F)(F)F)cc1)c1c(C)nn(-c2nc3c(F)cc(F)cc3s2)c1O
Reply: 5.66

###

# assay.notes: Cell viability assay
# Assay type: cell-based
# test.context: mouse, RAW-ISG cells, CC50 (CCK-8)
metric: CC50 at 24 h (µM)
Value expressed in µM; do not type the unit.

Task item: Query: CC50 at 24 h; subject: Cc1nn(-c2nc3ccc(Cl)c(Cl)c3[nH]2)c(O)c1C1OC(=O)c2ccccc21 (centres unmarked) [RU.521, reference compound]
Reply: 70.1

Task item: Also Cc1nn(-c2nc3c(F)cc(F)cc3s2)c(O)c1C(c1ccc(C(F)(F)F)cc1)c1c(C)nn(-c2nc3c(F)cc(F)cc3s2)c1O [XL-3158] , if possible.
Reply: 56.8
